tested-system: pooled human IgG (human IgG1, 2, 3 and 4)
endpoint-name: Enzyme Activity Endpoint Assay: scIgG

- protein: "PRT-522 (protein) MITSVWTKGVTPPTDFIKGEDVFHAPYKAGQGWYDITKTFNGKDNLLCGAATAGNMLHWWFDQNKEEIEAYLKKHPEKQKIIFNNQELFDLKAVINTKDSQTNSALFNYFKDKAFPNLSARRLGVFPDLVLDMFINGYYLNVYKTQTTDVNRTYQTKDRRGGIFDAVFTRGVQSKLLTERHDFKEKTLKEISDLIKQELTEGKALGLSHTYANVRINHVINLWGADFDSNGNLEAIYVTDSDTNASIGMKKYFVGVNSAGKVAISAKEIKEDNIGAQVLGLFTLSTGQDIWNQTNLEHHHHHH"
  result: "0 ng/µL"
- protein: "PRT-526 (protein) MANQEIRYSEETPKTITSVWTKGVTPPTDFIKNEDVLHAPYIANQGWYDITKTFNGKDDLLCGAATAGNMLHWWFDQNKEEIERYLKKHPEKQKINFNGEQMFDVKEAIDTKDSQTDSALFEYFKDKAFPNLSTKHLGVMPDHVLDMFINGYYLSLGKHGPTPVKRGTKDPRGGIFDAVFTRGDQSKLLTSRHDFKEKTLKEISDLIKQELTEGKALALSHTYANVRINHVINLWGADFDSEGNLEAIYVTDSDSNASIGMKKYYVGVNSAGKVAISAKEIEGDNIGAQVLGLFTLSTGQDIWEQTNLEHHHHHH"
  result: "627 ng/µL"
- protein: "PRT-271 (protein) MVTSVWTKGVTPPTDFIYGEDVLHAPYKAGQGWYDITKLFNGKDDLLCGAATAGNMLHWWFDQNKEQIENYLKKHPEKQKINFNGEQMFDVKEAIDTKDSQLDSKLFDYFKEKAFPYLSTKHLGVFPDHVIDMFINGYRLSLTNHGPTPVKRGSKDPRGGIFDAVFTRGDQSKLLTNRHDLKNKTLKEISDLIKQELTEGKALGISHTYANVRINHVINLWGADFDAEGNLEAIYVTDSDSNPSIGMKKYFVGVNSSGKVAISAKEIEEDNIGAQVLGLFTLSTGQDIWNQTN"
  result: "0 ng/µL"
- protein: "PRT-452 (protein) MVTSVWTKGVTPPANFTQGEDVFHAPYKANQGWYDITKAFDGGDDLLCGAATAGNMLHWWFDQNKDQIEAYLKEHPEKQKINFNGEQMFDVKEAIDTKDDQTNSELFNYFKEKAFPYLSTKHLGVFPDHVLDMFINGYRLSLTNHGPTPVKEGSKDPRGGIFDAVFTRGDQSKLLTSRHDLKNKTLKEISDLIKQELTEGKALALSHTYANVRINHVINLWGADFDSNGNLEAIYVTDSDSNASIGMKKYFVGVNSAGKVAISAKEIEDDNIGAQVLGLFTLSTGQDIWNQTNLEHHHHHH"
  result: "0 ng/µL"
